I'd appreciate it if you could supply t1/2 values for the items below.
- testTarget: T1, human C5 R885C-mmh (human, UniProt P01031 19-1676)
- T1 construct: also called human C5 variant R885C
- assayDetails: SPR, mAb captured via anti-hFc, 25C
Could you give me the number in h? Just the number is fine.

Data request: Kindly indicate its recorded t1/2. Item: H4H12170P (antibody, human IgG4, V domains shown, Human IgG4 Fc with S108P hinge mutation (H4H)) VH: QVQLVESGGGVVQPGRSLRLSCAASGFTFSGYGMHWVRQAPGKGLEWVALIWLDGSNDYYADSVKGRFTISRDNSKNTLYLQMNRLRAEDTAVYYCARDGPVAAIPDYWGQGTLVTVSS VL: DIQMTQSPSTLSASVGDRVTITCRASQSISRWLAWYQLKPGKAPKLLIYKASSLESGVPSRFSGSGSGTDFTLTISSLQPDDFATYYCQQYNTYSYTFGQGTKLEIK
Data returned: 1.2

Data request: Supply reported t1/2 belonging to this binder: H4H12159P (antibody, human IgG4, V domains shown, Human IgG4 Fc with S108P hinge mutation (H4H)) VH: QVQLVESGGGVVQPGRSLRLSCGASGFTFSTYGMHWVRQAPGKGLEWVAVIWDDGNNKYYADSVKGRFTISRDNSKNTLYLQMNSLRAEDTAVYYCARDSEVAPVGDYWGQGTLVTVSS VL: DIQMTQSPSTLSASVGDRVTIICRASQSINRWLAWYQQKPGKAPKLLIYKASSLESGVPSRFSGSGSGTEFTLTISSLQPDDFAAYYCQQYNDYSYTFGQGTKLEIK
Data returned: 1.13

Data request: Quote t1/2 reported for H4H12175P (antibody, human IgG4, V domains shown, Human IgG4 Fc with S108P hinge mutation (H4H)) VH: EVQLVESGGGVVQPGGSLRLSCAASGFTFNDYAMHWVRQAPGKGLEWVSLISGDGGNTYYADSVKGRLTISRDNSKNSLYLQMNSLRTEDTALYYCAKDKGWNFGYFDLWGRGTLVTVSS VL: DIQMTQSPSSLSTSVGDRVTITCRASQNIDTYLNWYQQKPGKAPKLLIYDASSLQSGVPSRFSGSGSGTDFTLTITSLQPEDFATYYCQQNDNILHPLTFGGGTKVEIK please.
Data returned: 0.0167

Data request: Dear colleague, please send me the reported t1/2 for H4H12171P (antibody, human IgG4, V domains shown, Human IgG4 Fc with S108P hinge mutation (H4H)) VH: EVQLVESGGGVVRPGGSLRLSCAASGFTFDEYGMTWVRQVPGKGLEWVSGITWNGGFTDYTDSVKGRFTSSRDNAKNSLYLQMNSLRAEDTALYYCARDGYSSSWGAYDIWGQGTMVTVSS VL: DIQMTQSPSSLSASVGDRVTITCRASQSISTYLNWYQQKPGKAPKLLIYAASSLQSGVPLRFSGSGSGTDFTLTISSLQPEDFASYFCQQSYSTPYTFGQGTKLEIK when you can.
Data returned: 1.38

Data request: Find the measured t1/2 of H4H12169P (antibody, human IgG4, V domains shown, Human IgG4 Fc with S108P hinge mutation (H4H)) VH: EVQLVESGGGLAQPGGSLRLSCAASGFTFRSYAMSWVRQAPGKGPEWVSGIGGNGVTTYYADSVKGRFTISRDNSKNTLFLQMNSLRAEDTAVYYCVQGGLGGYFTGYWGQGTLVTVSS VL: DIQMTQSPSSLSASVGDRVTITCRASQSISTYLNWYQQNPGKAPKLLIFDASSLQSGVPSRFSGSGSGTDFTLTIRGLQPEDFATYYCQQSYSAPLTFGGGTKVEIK and report it.
Data returned: 2.75
